System: MDA-MB-435 parental nonresistant melanoma cells
Test: Cytotoxicity (SRB) assay, MDA-MB-435
Format: cell-based
Conditions: Homo sapiens, Table 14C, melanoma cells, read-out: IC50 ± SEM MDA-MB-435
pIC50: −log10 of the molar value.
measure: pIC50

Entry COc1cc(Cc2nc(-c3ccccc3)c(-c3ccccc3)[nH]2)cc(OC)c1OC [102 e] — recorded pIC50 = < 4.30

----------
System: PC-3 human prostate cancer cell line
Test: cells
Details: Homo sapiens, read-out: IC50 ± SEM, PC-3, Table 12
Text: Cells were stained with SRB solution.
Note to self: IC50 under 0.4 µM means satisfied, ties and anything higher get not satisfied.

Worked cases, answers included:
COc1cc(C(=O)c2c[nH]c(-c3ccc(Cl)cc3)n2)cc(OC)c1OC [12fa] :: satisfied
COc1cc(C(=O)c2c[nH]c(-c3ccc(C(C)(C)C)cc3)n2)cc(OC)c1OC [12w] :: not satisfied
O=C(c1cc(O)c(O)c(O)c1)c1c[nH]c(-c2cc(O)c(O)c(O)c2)n1 [13ea] :: not satisfied
CCc1ccc(-c2nc(C(=O)c3cc(OC)c(OC)c(OC)c3)c[nH]2)cc1 [12q] :: satisfied
COc1cc(C(=O)c2c[nH]c(-c3ccc(C(C)C)cc3)n2)cc(OC)c1OC [12v] :: satisfied
COc1cc(C(=O)c2c[nH]c(-c3ccc(OCc4ccccc4)cc3)n2)cc(OC)c1OC [12ja] :: not satisfied
COc1ccc(-c2nc(C(=O)c3cc(OC)c(OC)c(OC)c3)c[nH]2)cc1 [12ca] :: satisfied
O=C(c1cc(O)c(O)c(O)c1)c1c[nH]c(-c2ccc(Cl)cc2)n1 [13fa] :: not satisfied

Shift focus to the following entry.
Q: Lab log: compare recorded IC50 with 0.4 µM; is it strictly lower for COc1cc(C(=O)c2c[nH]c(-c3ccc(F)cc3)n2)cc(OC)c1OC [12ba] ?
A: satisfied

Cited source for all entries: patent US11465987B2
